# TARGET_UNDER_TEST: human Gal-3 (hGal-3) (Homo sapiens (Human))
# Sequence (P17931 whole entry): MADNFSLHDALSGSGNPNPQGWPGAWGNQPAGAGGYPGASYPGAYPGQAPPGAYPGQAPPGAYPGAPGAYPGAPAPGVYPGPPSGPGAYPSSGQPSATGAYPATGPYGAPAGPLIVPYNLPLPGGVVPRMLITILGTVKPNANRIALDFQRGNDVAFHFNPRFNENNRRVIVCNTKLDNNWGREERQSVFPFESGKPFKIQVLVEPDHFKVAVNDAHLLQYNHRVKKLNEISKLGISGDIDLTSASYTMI
# EXPERIMENT_SUMMARY: competitive binding assay: biotinylated hGal-3 binding to microplate-adsorbed asialofetuin (ASF)
# CONDITIONS_USED: Table 14; read-out: IC50 (Gal-3 inhibition)
EXPERIMENTAL_ENDPOINT: log10(IC50) (log10 of the value in nM)
Please note: log10 values; quantity IC50; unit nM.

Below, 5 compounds whose answers are already recorded.
| COMPOUND | EXPERIMENTAL_ENDPOINT | TEST_VALUE |
| --- | --- | --- |
| CO[C@@H]1[C@@H](n2cc(-c3ccc(F)c(F)c3)nn2)[C@@H](O)[C@@H](CO)O[C@H]1SC(c1ncccc1C)C1(O)CCC(F)(F)CC1 (stereo partly shown) | log10(IC50) | 1.95 |
| CO[C@@H]1[C@@H](n2cc(-c3cc(F)c(Cl)c(F)c3)nn2)[C@@H](O)[C@@H](CO)O[C@H]1SC(c1ncccc1C)C1(O)CCC(F)(F)CC1 (stereo partly shown) | log10(IC50) | 1.95 |
| CO[C@@H]1[C@@H](n2cc(-c3ccc(F)c(F)c3)nn2)[C@@H](O)[C@@H](CO)O[C@H]1S[C@@H](c1ncccc1C)C1(O)CCC(F)(F)CC1 [Example 16.44.126S.I.] | log10(IC50) | 3.27 |
| CO[C@@H]1[C@@H](n2cc(-c3ccc(Cl)c(F)c3F)nn2)[C@@H](O)[C@@H](CO)O[C@H]1SC(c1ncccc1C)C1(O)CCC(F)(F)CC1 (stereo partly shown) | log10(IC50) | 1.85 |
| CO[C@@H]1[C@@H](n2cc(-c3ccc(F)c(F)c3F)nn2)[C@@H](O)[C@@H](CO)O[C@H]1SC(c1ncccc1C)C1(O)CCC(F)(F)CC1 (stereo partly shown) | log10(IC50) | 1.78 |

INPUT: Report value only: log10(IC50), human Gal-3 (hGal-3) (Homo sapiens (Human)), CO[C@@H]1[C@@H](n2cc(-c3cc(F)c(Cl)c(Cl)c3)nn2)[C@@H](O)[C@@H](CO)O[C@H]1SC(c1ncccc1C)C1(O)CCC(F)(F)CC1 (stereo partly shown)
OUTPUT: 2.15

* * *

# TARGET_UNDER_TEST: UniProt P09382
# Sequence (P09382 whole entry): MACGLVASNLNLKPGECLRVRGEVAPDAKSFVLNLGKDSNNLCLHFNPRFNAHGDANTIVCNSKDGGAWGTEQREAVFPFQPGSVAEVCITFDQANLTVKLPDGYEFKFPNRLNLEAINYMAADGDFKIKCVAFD
EXPERIMENTAL_ENDPOINT: IC50 (nM)
Use nM as the unit, but write only the number.

| COMPOUND | EXPERIMENTAL_ENDPOINT | TEST_VALUE |
| --- | --- | --- |
| CC(C)Cc1c([C@@H](S[C@@H]2O[C@H](CO)[C@H](O)[C@H](n3cc(-c4cc(F)c(F)c(F)c4)nn3)[C@H]2O)C2(O)CCC(F)(F)CC2)noc1C1CC1 [Example 2.44.131 R.] | IC50 | 90 |
| OC[C@H]1O[C@@H](S[C@H](c2ncccc2C2CC2)C2(O)CCC(F)(F)CC2)[C@H](O)[C@@H](n2cc(-c3cc(F)c(F)c(F)c3)nn2)[C@H]1O [Example 2.44.134R.] | IC50 | 50 |

INPUT: Item CO[C@@H]1[C@@H](n2cc(-c3cc(F)c(F)c(F)c3)nn2)[C@@H](O)[C@@H](CO)O[C@H]1S[C@@H](c1nc(C)ccc1Cl)C1(O)CCC(F)(F)CC1 [Example 2.44.148S.I.] : provide IC50
OUTPUT: 31000
